Origin of values: ChEMBL document CHEMBL1133765

# logD per record follows
test: physchem; conditions: octanol/water, pH 6.5

>  <molecule>
COc1ccc([C@@H]2Sc3ccccc3N(CCN(C)C)C(=O)[C@@H]2OC(C)=O)cc1 [DILTIAZEM]

>  <logD>
1.47

$$$$
>  <molecule>
CCC1(c2cccc(O)c2)CCCCN(C)C1 (centres undefined) [MEPTAZINOL]

>  <logD>
0.71

$$$$
>  <molecule>
Cc1onc(-c2c(Cl)cccc2Cl)c1C(=O)N[C@@H]1C(=O)N2[C@@H]1SC(C)(C)[C@@H]2C(=O)O [DICLOXACILLIN]

>  <logD>
-0.79

$$$$
>  <molecule>
Oc1ncnc2[nH]ncc12 [ALLOPURINOL]

>  <logD>
-0.55

$$$$
>  <molecule>
COc1ccccc1OCCNCC(O)COc1cccc2[nH]c3ccccc3c12 (centres undefined) [CARVEDILOL]

>  <logD>
1.31

$$$$
>  <molecule>
COc1cc2nc(N3CCN(C(=O)C4COc5ccccc5O4)CC3)nc(N)c2cc1OC (centres undefined) [DOXAZOSIN]

>  <logD>
1.14

$$$$
>  <molecule>
COc1ccc(Cl)cc1C(=O)NCCc1ccc(S(=O)(=O)NC(=O)NC2CCCCC2)cc1 [GLYBURIDE]

>  <logD>
1.85

$$$$
>  <molecule>
CCOc1ccc2ccccc2c1C(=O)N[C@@H]1C(=O)N2[C@@H]1SC(C)(C)[C@@H]2C(=O)O [NAFCILLIN]

>  <logD>
-0.84

$$$$
>  <molecule>
Cc1nnc2n1-c1sc(Br)cc1C(c1ccccc1Cl)=NC2 [BROTIZOLAM]

>  <logD>
2.63

$$$$

====

settings: octanol/water

>  <mol>
C[C@]12C=CC(=O)C=C1CC[C@@H]1[C@@H]2[C@@H](O)C[C@@]2(C)[C@H]1CC[C@]2(O)C(=O)CO

>  <delta logD>
0

$$$$
>  <mol>
CNC[C@H](O)c1cccc(O)c1

>  <delta logD>
-0.9

$$$$
>  <mol>
CNCCC=C1c2ccccc2CCc2ccccc21

>  <delta logD>
-0.9

$$$$
>  <mol>
O=C1CN(/N=C/c2ccc([N+](=O)[O-])o2)C(=O)N1

>  <delta logD>
0

$$$$
>  <mol>
Cc1nc2n(c(=O)c1CCN1CCC(c3noc4cc(F)ccc34)CC1)CCCC2

>  <delta logD>
-0.9

$$$$

====

conditions: octanol/water
Criterion: delta logD strictly less than 0. Met: condition met. Not met: condition not met.

>  <molecule>
O=C(CCCN1CCC(O)(c2ccc(Cl)cc2)CC1)c1ccc(F)cc1

>  <category>
condition met

$$$$
>  <molecule>
COc1ccc2c3c1O[C@H]1[C@@H](O)C=C[C@H]4[C@@H](C2)N(C)CC[C@@]341

>  <category>
condition met

$$$$
>  <molecule>
CN(C)CCC=C1c2ccccc2CCc2ccccc21

>  <category>
condition met

$$$$
>  <molecule>
O=C1NC(=O)C(c2ccccc2)(c2ccccc2)N1

>  <category>
condition not met

$$$$
>  <molecule>
C=CCN1CC[C@]23c4c5ccc(O)c4O[C@H]2C(=O)CC[C@@]3(O)[C@H]1C5

>  <category>
condition met

$$$$
>  <molecule>
COc1cc2nc(N3CCN(C(=O)C4CCCO4)CC3)nc(N)c2cc1OC (centres undefined)

>  <category>
condition met

$$$$
>  <molecule>
O=C(O)CCCc1ccc(N(CCCl)CCCl)cc1

>  <category>
condition not met

$$$$
